The following molecules are listed with their measured viability at 10 µM values.
# Tested on: PC-3
# assay_summary: Cytotoxicity against human PC3 cells assessed as cell survival at 10 uM relative to control
# Format: functional
# condition_summary: read-out: Activity
quantity_name: viability at 10 µM (%)

{"molecule": "COc1cc([C@@H]2c3[nH]c4ccccc4c3C[C@H]3C(=O)N4[C@H](c5cc(OC)c(OCc6ccccc6)c(OC)c5)c5[nH]c6ccccc6c5C[C@H]4C(=O)N23)cc(OC)c1OCc1ccccc1", "quantity_name": "viability at 10 µM", "measurement_unit": "%", "relation_sign": "=", "measured": 98.2}
{"molecule": "COc1cc([C@@H]2c3[nH]c4ccccc4c3C[C@H]3C(=O)N4[C@H](c5cc(OC)c(O)c(OC)c5)c5[nH]c6ccccc6c5C[C@H]4C(=O)N23)cc(OC)c1O", "quantity_name": "viability at 10 µM", "measurement_unit": "%", "relation_sign": "=", "measured": 80.7}
{"molecule": "COc1cc([C@@H]2c3cc4c(cc3[C@@H](O[C@@H]3O[C@@H]5CO[C@@H](C)O[C@H]5[C@H](O)[C@H]3O)[C@H]3COC(=O)[C@H]23)OCO4)cc(OC)c1O [ETOPOSIDE]", "quantity_name": "viability at 10 µM", "measurement_unit": "%", "relation_sign": "=", "measured": 73.8}
{"molecule": "COc1cc([C@H]2c3[nH]c4ccccc4c3C[C@@H]3C(=O)N4[C@@H](c5cc(OC)c(OCc6ccccc6)c(OC)c5)c5[nH]c6ccccc6c5C[C@@H]4C(=O)N23)cc(OC)c1OCc1ccccc1", "quantity_name": "viability at 10 µM", "measurement_unit": "%", "relation_sign": ">", "measured": 100}

----------
# Tested on: PC-3
# assay_summary: Cytotoxicity against human PC3 cells assessed as cell survival at 10 uM relative to control
# Format: functional
# condition_summary: read-out: Activity
quantity_name: viability at 10 µM

{"line_notation": "COc1cc([C@H]2c3[nH]c4ccccc4c3C[C@@H]3C(=O)N4[C@@H](c5cc(OC)c(O)c(OC)c5)c5[nH]c6ccccc6c5C[C@@H]4C(=O)N23)cc(OC)c1O", "measured": "> 100%"}
{"line_notation": "COc1cc([C@H]2c3[nH]c4ccccc4c3C[C@@H]3C(=O)N4[C@@H](c5cc(OC)c(OC)c(OC)c5)c5[nH]c6ccccc6c5C[C@@H]4C(=O)N23)cc(OC)c1OC", "measured": "> 100%"}
{"line_notation": "COc1cc([C@@H]2c3[nH]c4ccccc4c3C[C@H]3C(=O)N4[C@H](c5cc(OC)c(OC)c(OC)c5)c5[nH]c6ccccc6c5C[C@H]4C(=O)N23)cc(OC)c1OC", "measured": "93%"}

----------
# Tested on: NCI-H520
# assay_summary: Cytotoxicity against human NCI-H520 cells assessed as cell survival at 100 uM relative to control
# Format: functional
# condition_summary: read-out: Activity

{"compound": "COc1cc([C@@H]2c3[nH]c4ccccc4c3C[C@H]3C(=O)N4[C@H](c5cc(OC)c(OCc6ccccc6)c(OC)c5)c5[nH]c6ccccc6c5C[C@H]4C(=O)N23)cc(OC)c1OCc1ccccc1", "measurement_unit": "%", "viability at 100 µM": 81}
{"compound": "COc1cc([C@@H]2c3cc4c(cc3[C@@H](O[C@@H]3O[C@@H]5CO[C@@H](C)O[C@H]5[C@H](O)[C@H]3O)[C@H]3COC(=O)[C@H]23)OCO4)cc(OC)c1O [ETOPOSIDE]", "measurement_unit": "%", "viability at 100 µM": 21.3}
{"compound": "COc1cc([C@H]2c3[nH]c4ccccc4c3C[C@@H]3C(=O)N4[C@@H](c5cc(OC)c(O)c(OC)c5)c5[nH]c6ccccc6c5C[C@@H]4C(=O)N23)cc(OC)c1O", "measurement_unit": "%", "viability at 100 µM": 26.8}
{"compound": "COc1cc([C@@H]2c3[nH]c4ccccc4c3C[C@H]3C(=O)N4[C@H](c5cc(OC)c(OC)c(OC)c5)c5[nH]c6ccccc6c5C[C@H]4C(=O)N23)cc(OC)c1OC", "measurement_unit": "%", "viability at 100 µM": 86.7}
{"compound": "COc1cc([C@H]2c3[nH]c4ccccc4c3C[C@@H]3C(=O)N4[C@@H](c5cc(OC)c(OC)c(OC)c5)c5[nH]c6ccccc6c5C[C@@H]4C(=O)N23)cc(OC)c1OC", "measurement_unit": "%", "viability at 100 µM": 98.9}
{"compound": "COc1cc([C@H]2c3[nH]c4ccccc4c3C[C@@H]3C(=O)N4[C@@H](c5cc(OC)c(OCc6ccccc6)c(OC)c5)c5[nH]c6ccccc6c5C[C@@H]4C(=O)N23)cc(OC)c1OCc1ccccc1", "measurement_unit": "%", "viability at 100 µM": 84.5}
{"compound": "COc1cc([C@@H]2c3[nH]c4ccccc4c3C[C@H]3C(=O)N4[C@H](c5cc(OC)c(O)c(OC)c5)c5[nH]c6ccccc6c5C[C@H]4C(=O)N23)cc(OC)c1O", "measurement_unit": "%", "viability at 100 µM": 5.8}
